Tested on: rabbit aortic rings
assay_procedure: Assay B: In vitro vascular smooth muscle response for AII (antagonist activity, pA2)
Format: cell-based
settings: Oryctolagus cuniculus, in vitro vascular smooth muscle response; two values per cell separated by / are separate determinations; read-out: Assay B pA2 (converted)
Measured log10 Kb, listed per entry for reference.
Heads up, the numbers here are log10 of Kb in nM units.

compound=CCCCc1nc(Cl)c(CO)n1Cc1ccc(-n2cccc2C(=O)O)cc1 value_type="log10 Kb" reported_value=3.20

Request: What value of log10 Kb has been reported for the following compound? CCCCc1nc(CCC2CCCCC2)n(Cc2ccc(-c3ccccc3-c3nnn[nH]3)cc2)n1
Result: 2.44

Request: Continue with CCCCc1cn(CCc2ccccc2)c(=O)n1Cc1ccc(-c2ccccc2-c2nnn[nH]2)cc1
Result: 0.30

Request: Try this compound too: CCCCc1nc(-c2ccccc2C)n(Cc2ccc(-c3ccccc3-c3nnn[nH]3)nc2)n1
Result: 2.78

----------
Test system: rabbit aortic rings
assay_procedure: Assay B: In vitro vascular smooth muscle response for AII (antagonist activity, pA2)
Assay type: cell-based
settings: Oryctolagus cuniculus, in vitro vascular smooth muscle response; two values per cell separated by / are separate determinations; read-out: Assay B pA2 (converted)
Classify: t when Kb is strictly less than 50 nM; f when Kb is not.

Request: Is Kb strictly under 50 nM for the entry CCCCc1nc(Cc2ccc(-c3ccccc3-c3nnn[nH]3)nc2)n(CCCC)n1 ?
Result: t

Request: Then what about the molecule CCCCc1nc(CCCO)nn1Cc1ccc(-c2ccccc2-c2nnn[nH]2)cc1 ?
Result: t

Request: Again, but for CCCCc1nc(C(=O)O)nn1Cc1ccc(-c2ccccc2-c2nnn[nH]2)cc1
Result: t

----------
Tested on: rabbit aortic rings
assay_procedure: Assay B: In vitro vascular smooth muscle response for AII (antagonist activity, pA2)
Format: cell-based
settings: Oryctolagus cuniculus, in vitro vascular smooth muscle response; two values per cell separated by / are separate determinations; read-out: Assay B pA2 (converted)
Protocol: Assay B: In Vitro Vascular Smooth Muscle-response for AII The compounds of the invention were tested for antagonist activity in rabbit aortic rings. […] Angiotensin II concentration-response curves were then recorded (3×10^−10 to 1×10^−5 M). […] The effectiveness of the test compound was expressed in terms of pA2 values and were calculated according to H. O. Schild [Br. J. Pharmacol, Chemother., 2,189-206 (1947)]. […] Each test antagonist was evaluated in aorta rings from two rabbits.
value_type: Kb (nM)
// units = nM; emit number, no label

Here's what some known entries look like.
compound=CCCCc1nc(C(F)(F)CCC)nn1Cc1ccc(-c2ccccc2-c2nnn[nH]2)nc1 reported_value=5.5
compound=CCCCc1nc(Cc2ccc(-c3ccccc3-c3nnn[nH]3)nc2)n(CC(C)(C)C)n1 reported_value=166

Request: So what does the record say about Kb for CCCCc1nc(Cc2ccc(-c3ccccc3-c3nnn[nH]3)cc2)nn1CCCC ?
Result: 5010

Request: Try this compound too: CCCCc1nc2c(OC(=O)C(C)C)nnc(O)c2n1Cc1ccc(-c2ccccc2-c2nnn[nH]2)cc1
Result: 0.617

Request: For CCCCc1nc(CCCC)n(Cc2ccc(-n3c(Br)ccc3-c3nnn[nH]3)cc2)n1 then?
Result: 9.55

Request: Consider next the compound CCCCc1nn(C(CC(=O)OCC)C(=O)c2ccccc2)c(=O)n1Cc1ccc(-c2ccccc2-c2nn[nH]n2)cc1 (centres unmarked) in the same way.
Result: 15.8

Request: Another compound: CCCCc1nc(CCC)nn1Cc1ccc(-c2ccccc2-c2nnn[nH]2)cc1
Result: 1.45

Request: // query: CCCCc1nc(CCCN)nn1Cc1ccc(-c2ccccc2-c2nnn[nH]2)cc1
Result: 776
